Cited source for all entries: patent US20210301026A1

system_tested: T1, monomeric cynomolgus monkey CSF1R ectodomain protein (cynomolgus monkey, UniProt P07333 20-517 (human entry))
T1 construct: also called monomeric cyno CSF1R; Cyno CSF1R
T1 chain: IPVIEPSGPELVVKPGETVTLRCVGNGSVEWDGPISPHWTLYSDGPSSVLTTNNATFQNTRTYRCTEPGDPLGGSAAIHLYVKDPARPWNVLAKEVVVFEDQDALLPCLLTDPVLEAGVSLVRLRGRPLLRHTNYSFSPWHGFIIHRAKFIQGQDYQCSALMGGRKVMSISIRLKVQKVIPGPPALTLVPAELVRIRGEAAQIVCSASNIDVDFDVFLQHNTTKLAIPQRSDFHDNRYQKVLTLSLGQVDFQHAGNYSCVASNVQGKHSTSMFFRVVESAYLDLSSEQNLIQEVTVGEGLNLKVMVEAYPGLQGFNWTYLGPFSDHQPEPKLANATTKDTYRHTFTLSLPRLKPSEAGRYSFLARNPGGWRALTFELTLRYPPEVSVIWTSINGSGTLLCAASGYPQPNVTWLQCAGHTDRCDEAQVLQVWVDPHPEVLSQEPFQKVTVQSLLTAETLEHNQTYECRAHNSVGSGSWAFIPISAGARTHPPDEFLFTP
test_method_notes: SPR Biacore, IgG captured, monomeric CSF1R analyte

binder	uom	kon
MH5 (antibody, human IgG4, V domains shown, Designer (maximally humanized) clone; tested as human IgG4(S228P)/Ckappa IgG; also called mAb-2) VH: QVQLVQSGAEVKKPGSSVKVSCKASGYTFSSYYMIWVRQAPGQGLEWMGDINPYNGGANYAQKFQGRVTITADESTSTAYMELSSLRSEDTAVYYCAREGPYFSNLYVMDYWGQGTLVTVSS VL: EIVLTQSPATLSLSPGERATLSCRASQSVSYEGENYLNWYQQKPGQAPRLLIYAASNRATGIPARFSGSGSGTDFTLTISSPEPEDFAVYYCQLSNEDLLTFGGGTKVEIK	M⁻¹ s⁻¹	500000
MH13 (antibody, human IgG4, V domains shown, Deimmunized MH5 derivative, human IgG4(S228P)/Ckappa IgG) VH: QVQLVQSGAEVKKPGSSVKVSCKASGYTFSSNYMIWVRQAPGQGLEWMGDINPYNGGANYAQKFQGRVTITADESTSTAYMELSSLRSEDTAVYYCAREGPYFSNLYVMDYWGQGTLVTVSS VL: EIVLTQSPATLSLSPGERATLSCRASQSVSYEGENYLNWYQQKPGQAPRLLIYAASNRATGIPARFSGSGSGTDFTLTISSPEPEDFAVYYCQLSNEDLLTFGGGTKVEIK	M⁻¹ s⁻¹	827000
MH24 (antibody, human IgG4, V domains shown, Deimmunized MH5 derivative, human IgG4(S228P)/Ckappa IgG) VH: QVQLVQSGAEVKKPGSSVKVSCKASGYTFSSHYMIWVRQAPGQGLEWMGDINPYNGGANYAQKFQGRVTITADESTSTAYMELSSLRSEDTAVYYCAREGPYFSNLYVMDYWGQGTLVTVSS VL: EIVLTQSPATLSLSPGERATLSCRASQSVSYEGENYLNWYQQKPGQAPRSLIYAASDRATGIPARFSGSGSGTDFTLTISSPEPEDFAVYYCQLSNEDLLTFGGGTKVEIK	M⁻¹ s⁻¹	1.07e+06
